- Tested on: Plasmodium yoelii nigeriensis
- experiment notes: Antimalarial activity against chloroquine-, mefloquine-, halofantrine-resistant Plasmodium yoelii nigeriensis blood stream schizonts infected in Swiss mouse assessed as disease cured mouse at 6 mg/kg, im administered once daily for 4 days measured on day 28
- Format: functional, organism-based
- Parameters: dose 6 mg/kg
Active and inactive are the calls of the source. No cut-off for these calls is given here.
Outcomes: active, inactive

INSERT INTO results (smiles_entry, target_under_test, group_label) VALUES
  ('CCO[C@H]1O[C@@H]2O[C@@]3(C)CC[C@H]4[C@H](C)CC[C@@H]([C@H]1C)[C@@]24OO3', 'Plasmodium yoelii nigeriensis', 'active'),
  ('C[C@H]1[C@@H](OCCCCCCCCCCO)O[C@@H]2O[C@@]3(C)CC[C@H]4[C@H](C)CC[C@@H]1[C@@]24OO3', 'Plasmodium yoelii nigeriensis', 'inactive'),
  ('C[C@H]1[C@@H](OCCOCCO)O[C@@H]2O[C@@]3(C)CC[C@H]4[C@H](C)CC[C@@H]1[C@@]24OO3', 'Plasmodium yoelii nigeriensis', 'inactive'),
  ('C[C@H]1[C@@H](OCCCCCCCCCCCCOC(=O)CCC(=O)O)O[C@@H]2O[C@@]3(C)CC[C@H]4[C@H](C)CC[C@@H]1[C@@]24OO3', 'Plasmodium yoelii nigeriensis', 'inactive');

###

Listing: Activity of selected molecules
- Test system: Plasmodium yoelii nigeriensis
- experiment notes: Antimalarial activity against chloroquine-, mefloquine-, halofantrine-resistant Plasmodium yoelii nigeriensis blood stream schizonts infected in Swiss mouse assessed as suppression of parasitemia at 12 mg/kg, im administered once daily for 4 days relative to control
- Format: functional
- condition info: route intramuscular
observation type: Activity

INSERT INTO assay_data (molecule, target_under_test, assay_value) VALUES
  ('C[C@H]1[C@@H](OCCCCCCCCOC(=O)CCC(=O)O)O[C@@H]2O[C@@]3(C)CC[C@H]4[C@H](C)CC[C@@H]1[C@@]24OO3', 'Plasmodium yoelii nigeriensis', '100%'),
  ('C[C@H]1[C@@H](OCCCCCCCCO)O[C@@H]2O[C@@]3(C)CC[C@H]4[C@H](C)CC[C@@H]1[C@@]24OO3', 'Plasmodium yoelii nigeriensis', '100%'),
  ('C[C@H]1[C@@H](OCCCCCCCCCCO)O[C@@H]2O[C@@]3(C)CC[C@H]4[C@H](C)CC[C@@H]1[C@@]24OO3', 'Plasmodium yoelii nigeriensis', '100%'),
  ('C[C@H]1[C@@H](OCCCCCCO)O[C@@H]2O[C@@]3(C)CC[C@H]4[C@H](C)CC[C@@H]1[C@@]24OO3', 'Plasmodium yoelii nigeriensis', '100%'),
  ('C[C@H]1[C@H](OC(=O)CCC(=O)O)O[C@@H]2O[C@@]3(C)CC[C@H]4[C@H](C)CC[C@@H]1[C@@]24OO3 [ARTESUNATE]', 'Plasmodium yoelii nigeriensis', '96.36%'),
  ('C[C@H]1[C@@H](OCCCCO)O[C@@H]2OC3(C)CC[C@H]4[C@H](C)CC[C@@H]1[C@@]24OO3', 'Plasmodium yoelii nigeriensis', '100%'),
  ('C[C@H]1[C@@H](OCCOCCOCCO)O[C@@H]2O[C@@]3(C)CC[C@H]4[C@H](C)CC[C@@H]1[C@@]24OO3', 'Plasmodium yoelii nigeriensis', '100%'),
  ('C[C@H]1[C@@H](OCCOCCO)O[C@@H]2O[C@@]3(C)CC[C@H]4[C@H](C)CC[C@@H]1[C@@]24OO3', 'Plasmodium yoelii nigeriensis', '100%'),
  ('C[C@H]1[C@@H](OCCCO)O[C@@H]2O[C@@]3(C)CC[C@H]4[C@H](C)CC[C@@H]1[C@@]24OO3', 'Plasmodium yoelii nigeriensis', '100%'),
  ('C[C@H]1[C@@H](OCCCCCCCCCCCCOC(=O)CCC(=O)O)O[C@@H]2O[C@@]3(C)CC[C@H]4[C@H](C)CC[C@@H]1[C@@]24OO3', 'Plasmodium yoelii nigeriensis', '71.27%'),
  ('C[C@H]1[C@@H](OCCOCCOCCOCCO)O[C@@H]2O[C@@]3(C)CC[C@H]4[C@H](C)CC[C@@H]1[C@@]24OO3', 'Plasmodium yoelii nigeriensis', '100%'),
  ('C[C@H]1[C@@H](OCCCCCCCCCCOC(=O)CCC(=O)O)O[C@@H]2O[C@@]3(C)CC[C@H]4[C@H](C)CC[C@@H]1[C@@]24OO3', 'Plasmodium yoelii nigeriensis', '98.18%'),
  ('C[C@H]1[C@@H](OCCO)O[C@@H]2O[C@@]3(C)CC[C@H]4[C@H](C)CC[C@@H]1[C@@]24OO3', 'Plasmodium yoelii nigeriensis', '100%'),
  ('C[C@H]1[C@@H](OCCCCCO)O[C@@H]2O[C@@]3(C)CC[C@H]4[C@H](C)CC[C@@H]1[C@@]24OO3', 'Plasmodium yoelii nigeriensis', '100%'),
  ('C[C@H]1[C@@H](OCCCCCCCCCOC(=O)CCC(=O)O)O[C@@H]2O[C@@]3(C)CC[C@H]4[C@H](C)CC[C@@H]1[C@@]24OO3 (mixture of isomers)', 'Plasmodium yoelii nigeriensis', '67.27%');

Cited source: ChEMBL document CHEMBL2029316
